Known Median dimer activity (recombination on loxP) of a selection of proteins
Biological target: T1, Cre recombinase monomer with Y324V mutation
T1 chain: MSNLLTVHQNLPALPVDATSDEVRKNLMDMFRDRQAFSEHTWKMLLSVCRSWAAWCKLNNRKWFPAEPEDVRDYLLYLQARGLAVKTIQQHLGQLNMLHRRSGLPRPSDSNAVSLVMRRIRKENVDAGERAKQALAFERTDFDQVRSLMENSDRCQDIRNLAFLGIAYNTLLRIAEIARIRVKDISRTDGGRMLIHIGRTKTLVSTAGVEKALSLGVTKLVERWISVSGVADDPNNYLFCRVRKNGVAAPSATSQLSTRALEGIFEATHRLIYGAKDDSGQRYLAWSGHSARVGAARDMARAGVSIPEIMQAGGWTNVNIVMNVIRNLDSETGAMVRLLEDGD
Reported metric: Median dimer activity (recombination on loxP) (%)

Protein	Endpoint value
Cre recombinase monomer with Q311R mutation (protein) MSNLLTVHQNLPALPVDATSDEVRKNLMDMFRDRQAFSEHTWKMLLSVCRSWAAWCKLNNRKWFPAEPEDVRDYLLYLQARGLAVKTIQQHLGQLNMLHRRSGLPRPSDSNAVSLVMRRIRKENVDAGERAKQALAFERTDFDQVRSLMENSDRCQDIRNLAFLGIAYNTLLRIAEIARIRVKDISRTDGGRMLIHIGRTKTLVSTAGVEKALSLGVTKLVERWISVSGVADDPNNYLFCRVRKNGVAAPSATSQLSTRALEGIFEATHRLIYGAKDDSGQRYLAWSGHSARVGAARDMARAGVSIPEIMRAGGWTNVNIVMNYIRNLDSETGAMVRLLEDGD	90
Cre recombinase monomer with K201Y mutation (protein) MSNLLTVHQNLPALPVDATSDEVRKNLMDMFRDRQAFSEHTWKMLLSVCRSWAAWCKLNNRKWFPAEPEDVRDYLLYLQARGLAVKTIQQHLGQLNMLHRRSGLPRPSDSNAVSLVMRRIRKENVDAGERAKQALAFERTDFDQVRSLMENSDRCQDIRNLAFLGIAYNTLLRIAEIARIRVKDISRTDGGRMLIHIGRTYTLVSTAGVEKALSLGVTKLVERWISVSGVADDPNNYLFCRVRKNGVAAPSATSQLSTRALEGIFEATHRLIYGAKDDSGQRYLAWSGHSARVGAARDMARAGVSIPEIMQAGGWTNVNIVMNYIRNLDSETGAMVRLLEDGD	26
Cre recombinase monomer with W315Q mutation (protein) MSNLLTVHQNLPALPVDATSDEVRKNLMDMFRDRQAFSEHTWKMLLSVCRSWAAWCKLNNRKWFPAEPEDVRDYLLYLQARGLAVKTIQQHLGQLNMLHRRSGLPRPSDSNAVSLVMRRIRKENVDAGERAKQALAFERTDFDQVRSLMENSDRCQDIRNLAFLGIAYNTLLRIAEIARIRVKDISRTDGGRMLIHIGRTKTLVSTAGVEKALSLGVTKLVERWISVSGVADDPNNYLFCRVRKNGVAAPSATSQLSTRALEGIFEATHRLIYGAKDDSGQRYLAWSGHSARVGAARDMARAGVSIPEIMQAGGQTNVNIVMNYIRNLDSETGAMVRLLEDGD	97
Cre recombinase monomer with W315G mutation (protein) MSNLLTVHQNLPALPVDATSDEVRKNLMDMFRDRQAFSEHTWKMLLSVCRSWAAWCKLNNRKWFPAEPEDVRDYLLYLQARGLAVKTIQQHLGQLNMLHRRSGLPRPSDSNAVSLVMRRIRKENVDAGERAKQALAFERTDFDQVRSLMENSDRCQDIRNLAFLGIAYNTLLRIAEIARIRVKDISRTDGGRMLIHIGRTKTLVSTAGVEKALSLGVTKLVERWISVSGVADDPNNYLFCRVRKNGVAAPSATSQLSTRALEGIFEATHRLIYGAKDDSGQRYLAWSGHSARVGAARDMARAGVSIPEIMQAGGGTNVNIVMNYIRNLDSETGAMVRLLEDGD	37
